Data origin, for the record: patent US8394929B2

# test-target: chick E12 dorsal root ganglion neurons
# assay-comment: AP-Nogo binding to chick dorsal root ganglion neurons
# cond: binding of 10 nM AP-Nogo; read-out: apparent Ki in the binding assay

substance	Ki / nM
Pep2-41: 2-41 fragment of the 66 amino acid region of Nogo, acetylated and amidated at the termini (Ac-RIYKGVIQAIQKSDEGHPFRAYLESEVAISEELVQKYSNS-NH2)	150
